The measurements presented in this section are drawn from patent US9783505B2.

study-system: His-PKC-theta (Homo sapiens)
Construct: His; purchased Invitrogen
Sequence (Q04759 whole entry): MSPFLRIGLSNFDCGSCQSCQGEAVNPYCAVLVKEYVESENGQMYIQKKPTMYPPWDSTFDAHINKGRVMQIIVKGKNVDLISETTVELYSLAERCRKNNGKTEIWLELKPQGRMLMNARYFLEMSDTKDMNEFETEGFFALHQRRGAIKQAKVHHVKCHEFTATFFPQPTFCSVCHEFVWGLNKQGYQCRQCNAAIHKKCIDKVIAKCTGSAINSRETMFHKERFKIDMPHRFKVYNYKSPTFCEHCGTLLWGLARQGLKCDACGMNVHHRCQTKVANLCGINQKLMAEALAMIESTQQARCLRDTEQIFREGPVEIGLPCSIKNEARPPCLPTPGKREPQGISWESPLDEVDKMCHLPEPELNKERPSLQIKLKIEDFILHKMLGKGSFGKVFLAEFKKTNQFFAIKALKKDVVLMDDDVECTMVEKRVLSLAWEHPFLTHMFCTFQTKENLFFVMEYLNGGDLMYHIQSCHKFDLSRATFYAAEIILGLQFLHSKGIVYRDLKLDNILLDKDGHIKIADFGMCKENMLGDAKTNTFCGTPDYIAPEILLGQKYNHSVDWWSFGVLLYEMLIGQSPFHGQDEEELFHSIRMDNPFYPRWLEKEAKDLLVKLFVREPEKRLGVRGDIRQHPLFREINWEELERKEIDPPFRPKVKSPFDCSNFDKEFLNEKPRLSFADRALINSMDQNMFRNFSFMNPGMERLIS
experimental-details: PKC-theta Assay (384-well time resolved fluorescence, IMAP TR-FRET)
Type: biochemical
conditions-used: read-out: Act. Level (IC50 in the PKC-theta Assay)
pIC50: −log10 of the molar value.
measured-quantity: pIC50

The cases that follow already have their pIC50 on record.
{"compound": "CC1(C)[C@@H](O)C[C@H]1Nc1nc(NCCn2ccc3ccccc32)ncc1C#N [Cmpd 239]", "pIC50": "5.00 to 5.70"}
{"compound": "CN1C(=O)C(CCNc2ncc(C#N)c(N[C@@H]3C[C@H](C(N)=O)C3(C)C)n2)c2ccccc21 (some centres unmarked) [Cmpd 325]", "pIC50": "6.10 to 7.00"}
{"compound": "Cc1cc(C(F)(F)F)nn1CCNc1ncc(C#N)c(N[C@@H]2CC[C@H](O)C(C)(C)C2)n1 [Cmpd 210]", "pIC50": "5.70 to 6.10"}
{"compound": "CC1(C)C[C@H](Nc2nc(NCCc3c[nH]c4cnccc34)ncc2C#N)CC[C@@H]1O [Cmpd 283]", "pIC50": "6.10 to 7.00"}
{"compound": "CC1(C)[C@@H](O)C[C@H]1Nc1nc(NCCc2ccnc(C(F)(F)F)c2)ncc1C#N [Cmpd 273]", "pIC50": "5.70 to 6.10"}

Task: Give pIC50 for the following compound: CC(C)(F)c1ncncc1CNc1ncc(C#N)c(N[C@@H]2C[C@H](CO)C2(C)C)n1 [Cmpd 15]
Output: > 7.00

Task: Give pIC50 for the following compound: N#Cc1cnc(NCCc2c[nH]c3ccccc23)nc1N[C@H]1C[C@@H](C(N)=O)C1 [Cmpd 290]
Output: 6.10 to 7.00

Task: Give pIC50 for the following compound: CC1(C)C[C@H](Nc2nc(NCCn3cc(C#N)cn3)ncc2C#N)CC[C@@H]1O [Cmpd 213]
Output: 5.00 to 5.70
